System: Staphylococcus aureus
Assay: Antimicrobial activity against Staphylococcus aureus GC 1131 (MRSA)
Format: functional
Could you please report measured MIC for the items listed next?
# number only, unit µg/mL dropped from output

Measured MIC, Cc1ccc(NC(=O)Nc2nc(C(C)(C)C)c(C#N)s2)cc1C : 0.5

Input O=C(Nc1ccc(Cl)c(Cl)c1)Nc1nccs1 . Output MIC: 2

Record N#Cc1cnc(NC(=O)Nc2ccc(Cl)c(Cl)c2)s1 . Reported MIC: 1

For record O=C(Nc1ccc(Cl)c(Cl)c1)Nc1ncc([N+](=O)[O-])s1 the listed MIC is 1

====

For each of the compounds below, state its log10(MIC).
Tested on: Staphylococcus aureus
Assay: Antimicrobial activity against Staphylococcus aureus GC 1131 (MRSA)
Format: functional
Hello, just confirming the data are log10 of MIC with units of mg/L.

Staphylococcus aureus data for CC(C)(C)c1nc(NC(=O)OCc2ccc(Cl)c(Cl)c2)sc1C#N ; its log10(MIC): 0.30

For N#Cc1cnc(NC(=O)Nc2ccc(F)c(F)c2)s1 on Staphylococcus aureus, measured log10(MIC) was 0.60

Kindly note: Staphylococcus aureus, CC(C)COc1nc(NC(=O)Nc2ccc(Cl)c(Cl)c2)sc1C#N , log10(MIC) value reported: -0.30

Query N#Cc1csc(NC(=O)Nc2ccc(Cl)c(Cl)c2)n1 on Staphylococcus aureus; log10(MIC) returned: 0.90

Measured log10(MIC) for this entry CC(C)(C)c1nc(NC(=O)NCc2ccc(Cl)c(Cl)c2)sc1C#N on Staphylococcus aureus: 0.00

Kindly note: Staphylococcus aureus, N#Cc1sc(NC(=O)Nc2ccc(Cl)c(Cl)c2)nc1Cl , log10(MIC) value reported: -0.30

Known value: Staphylococcus aureus log10(MIC) of the compound CCOc1nc(NC(=O)Nc2ccc(Cl)c(Cl)c2)sc1C#N equals 0.00

====

So I've got a bunch of compounds here, and I need their IC50 values.
Assay: Inhibitory activity against MurA from Escherichia coli
Format: functional
// return numeric value only (unit: µg/mL, not printed)

Entry O=C(Nc1ccc(Cl)c(Cl)c1)Nc1ncc([N+](=O)[O-])s1 , IC50 reported as 4.6

// IC50 lookup, compound = N#Cc1cnc(NC(=O)Nc2ccc(Cl)c(Cl)c2)s1 , result: 12.6

The compound O=C(Nc1ccc(Cl)c(Cl)c1)Nc1nccs1 showed IC50 equal to 20

So, CC(C)(C)c1nc(NC(=O)OCc2ccc(Cl)c(Cl)c2)sc1C#N ? Its IC50 was 25

Noted for CC(C)(C)c1nc(NC(=O)NCc2ccc(Cl)c(Cl)c2)sc1C#N : its IC50 reads 20.8

Lookup result for COc1nc(NC(=O)Nc2ccc(Cl)c(Cl)c2)sc1C#N ; measured IC50: 21.6

====

Assay: Inhibitory activity against MurA from Escherichia coli
Format: functional
PROPERTY MEASURED: IC50

Record summary for CC(C)(C)c1nc(NC(=O)Nc2ccc(F)c(F)c2)sc1C#N : reported IC50 = > 25 µg/mL

The reported IC50 of the compound N#Cc1sc(NC(=O)Nc2ccc(Cl)c(Cl)c2)nc1N1CCOCC1 was > 25 µg/mL

Just so you know, measured IC50 for CC(C)COc1nc(NC(=O)Nc2ccc(Cl)c(Cl)c2)sc1C#N came out at > 25 µg/mL

Query CC(C)(C)c1nc(NC(=O)Nc2ccc(Cl)c(Cl)c2)sc1C#N yields IC50 of 3.3 µg/mL

Entry Cc1ccc(NC(=O)Nc2nc(C(C)(C)C)c(C#N)s2)cc1C ; IC50 = > 25 µg/mL

So for N#Cc1cnc(NC(=O)NCc2ccc(Cl)c(Cl)c2)s1 , the logged IC50 turned out to be > 25 µg/mL

Record CC(C)(C)c1nc(NC(=O)Nc2cccnc2)sc1C#N , field IC50: 25 µg/mL

====

Assay: Inhibitory activity against MurB
Assay type: functional
Would you kindly list IC50 for each of these molecules?
Form entry: value (µg/mL) — number only.

In plain terms, O=C(Nc1ccc(Cl)c(Cl)c1)Nc1ccccn1 has a documented IC50 of 17

For COC(=O)c1cnn(C)c1NC(=O)Nc1ccc(Cl)c(Cl)c1 the molecule record lists IC50 as 23

The reported value for COC(=O)c1sccc1NC(=O)Nc1ccc(Cl)c(Cl)c1 in terms of IC50 is 18

====

Tested on: Staphylococcus aureus
Assay: Antimicrobial activity against Staphylococcus aureus GC 1131 (MRSA)
Assay type: functional
Give measured MIC for each item. Keep answers brief.

Measured MIC, N#Cc1cnc(NC(=O)NCc2ccc(Cl)c(Cl)c2)s1 : > 128 µg/mL

compound CC(C)(C)c1nc(NC(=O)Nc2ccc(F)c(F)c2)sc1C#N , MIC observed: < 0.12 µg/mL

Entry N#Cc1cnc(NC(=O)OCc2ccc(Cl)c(Cl)c2)s1 , MIC reported as > 128 µg/mL

So for COc1nc(NC(=O)Nc2ccc(Cl)c(Cl)c2)sc1C#N , the logged MIC turned out to be > 128 µg/mL

====

System: Staphylococcus aureus
Assay: Antimicrobial activity against Staphylococcus aureus GC 1131 (MRSA)
Type: functional
PROPERTY MEASURED: MIC

Noted for N#Cc1sc(NC(=O)Nc2ccc(Cl)c(Cl)c2)nc1N1CCOCC1 : its MIC reads > 128 µg/mL

The reported MIC of the compound CC(C)(C)c1nc(NC(=O)Nc2cccc(C#N)c2)sc1C#N was > 128 µg/mL

# compound CC(C)(C)c1nc(NC(=O)Nc2ccc(Cl)c(Cl)c2)sc1C#N ; its MIC = < 0.12 µg/mL

For reference, reported MIC for CC(C)(C)c1nc(NC(=O)Nc2cccnc2)sc1C#N stands at > 128 µg/mL

====

Exercise: for every item that follows, state its recorded IC50.
Assay: Inhibitory activity against MurA from Escherichia coli
Assay type: functional

N#Cc1cnc(NC(=O)Nc2ccc(F)c(F)c2)s1 has a reported IC50 of > 25 µg/mL

So, CC(C)(C)c1nc(NC(=O)Nc2cccc(C#N)c2)sc1C#N ? Its IC50 was > 25 µg/mL

IC50 in this record for N#Cc1cnc(NC(=O)OCc2ccc(Cl)c(Cl)c2)s1 : > 25 µg/mL

The reported IC50 of the compound N#Cc1sc(NC(=O)Nc2ccc(Cl)c(Cl)c2)nc1Cl was > 25 µg/mL

Query N#Cc1csc(NC(=O)Nc2ccc(Cl)c(Cl)c2)n1 yields IC50 of > 25 µg/mL

The measured IC50 associated with CCOc1nc(NC(=O)Nc2ccc(Cl)c(Cl)c2)sc1C#N reads > 25 µg/mL
